- Target Or Test System: DRB01*04:04
- Experimental Setup: chains peptide; modification not given
Property Measured: IC50 (nM)
// units = nM; emit number, no label

Input RGHLRIAGHHLGRCDIKDLPKEI [SEQ ID NO 307] , output reported IC50.
1730
